tested on: chloroform-induced ventricular arrhythmias; experiment: Chloroform-induced ventricular arrhythmias (fibrillation) in mice, intraperitoneal dose; details: dose 100 mg/kg intraperitoneal, 10 treated; protected against CHCl3-induced ventricular fibrillation
metric-name: Number of Animals Protected
Reply with just the number.

The molecule listed as CCN(CC)CC(=O)Nc1c(C)cccc1C has a reported Number of Animals Protected of 5

The molecule listed as COCCc1ccc(OCC(O)CNCCc2ccccc2)cc1 (centres unmarked) has a reported Number of Animals Protected of 9

The molecule listed as COCCc1ccc(OCC(O)CNCCc2ccc(O)cc2)cc1 (centres unmarked) has a reported Number of Animals Protected of 8

The molecule listed as COC(=O)NCCc1ccc(OCC(O)CNC(C)C)cc1 (centres unmarked) has a reported Number of Animals Protected of 5

The molecule listed as CC(C)NCC(O)COc1cccc2ccccc12 (centres unmarked) has a reported Number of Animals Protected of 10

* * *

test: Alternative chloroform test on mice: ventricular tachycardia inhibition and ataxia; assay type: in vivo; conditions: mouse, in vivo, sc
metric-name: TD50 at 20 min

The compound listed as COCCc1ccc(OCC(O)CNCCCc2ccccc2)cc1 (centres unmarked) has a reported TD50 at 20 min of > 50 mg/kg

The compound listed as COCCc1ccc(OCC(O)CNCCCCc2ccc(OC)c(OC)c2)cc1 (centres unmarked) has a reported TD50 at 20 min of > 6.3 mg/kg

The compound listed as COCCc1ccc(OCC(O)CNCc2ccccc2)cc1 (centres unmarked) has a reported TD50 at 20 min of 60 mg/kg

The compound listed as COCc1ccc(OCC(O)CNCCc2ccccc2)cc1 (centres unmarked) has a reported TD50 at 20 min of ~100 mg/kg

The compound listed as COCCc1ccc(OCC(O)CNC(C)C)cc1 (centres unmarked) has a reported TD50 at 20 min of > 50 mg/kg

The compound listed as COCCc1ccc(OCC(O)CNCCc2ccc(O)cc2)cc1 (centres unmarked) has a reported TD50 at 20 min of > 13 mg/kg

The compound listed as COCc1ccc(OCC(O)CNCc2ccccc2)cc1 (centres unmarked) has a reported TD50 at 20 min of ~70 mg/kg

The compound listed as Cc1cccc(C)c1NC(=O)C(C)N (centres unmarked) [Tocainide, reference compound] has a reported TD50 at 20 min of 130 mg/kg

* * *

Hi there, I'd appreciate the recorded TD50 for every entry that follows.
assay: Conscious dogs with ligation of a coronary artery according to Harris: ectopics and convulsions; assay type: in vivo; details: in vivo; iv.; conscious dog; mean value for 3-5 dogs; read-out: ED50 Convulsive
Quick reminder: number only, in mg/kg, skip the unit.

The compound listed as CC(C)NCC(O)COc1cccc2ccccc12 (centres unmarked) [Propranolol] has a reported TD50 of 8

The compound listed as COCCc1ccc(OCC(O)CNCCOc2ccccc2)cc1 (centres unmarked) [Ex. 13] has a reported TD50 of 8

The compound listed as COCCc1ccc(OCC(O)CNCCCCc2ccccc2)cc1 (centres unmarked) [Ex. 11] has a reported TD50 of 8

The compound listed as CC(C)NC[C@@H](O)COc1cccc2ccccc12 [D-Propranolol] has a reported TD50 of 8

* * *

tested on: ouabain-induced arrhythmias; experiment: Ouabain-induced arrhythmias in anesthetized guinea-pigs; format: in vivo; conditions: animals with antiarrhythmic effect / animals tested; dose 1.0 mg/kg i.v.
Hi there, I'd appreciate the recorded A-A EFFECT IN NUMBER OF ANIMALS for every entry that follows.

The molecule listed as CC(C)NC[C@@H](O)COc1cccc2ccccc12 has a reported A-A EFFECT IN NUMBER OF ANIMALS of 6/6

The molecule listed as COCCc1ccc(OCC(O)CNCCc2ccccc2)c(Br)c1 (stereo not shown) has a reported A-A EFFECT IN NUMBER OF ANIMALS of 6/6

The molecule listed as COCCc1ccc(OCC(O)CNCCc2ccccc2)cc1 (stereo not shown) has a reported A-A EFFECT IN NUMBER OF ANIMALS of 9/9

The molecule listed as COCCc1ccc(OCC(O)CNC(C)Cc2ccc(O)cc2)c(Br)c1 (stereo not shown) has a reported A-A EFFECT IN NUMBER OF ANIMALS of 6/6
